# tgt: EGFR Del19/C797S (Homo sapiens, UniProt P00533, C797S/DEL746-750)
# Sequence (P00533 with tags, fused parts or gaps DEL746-750/C797S): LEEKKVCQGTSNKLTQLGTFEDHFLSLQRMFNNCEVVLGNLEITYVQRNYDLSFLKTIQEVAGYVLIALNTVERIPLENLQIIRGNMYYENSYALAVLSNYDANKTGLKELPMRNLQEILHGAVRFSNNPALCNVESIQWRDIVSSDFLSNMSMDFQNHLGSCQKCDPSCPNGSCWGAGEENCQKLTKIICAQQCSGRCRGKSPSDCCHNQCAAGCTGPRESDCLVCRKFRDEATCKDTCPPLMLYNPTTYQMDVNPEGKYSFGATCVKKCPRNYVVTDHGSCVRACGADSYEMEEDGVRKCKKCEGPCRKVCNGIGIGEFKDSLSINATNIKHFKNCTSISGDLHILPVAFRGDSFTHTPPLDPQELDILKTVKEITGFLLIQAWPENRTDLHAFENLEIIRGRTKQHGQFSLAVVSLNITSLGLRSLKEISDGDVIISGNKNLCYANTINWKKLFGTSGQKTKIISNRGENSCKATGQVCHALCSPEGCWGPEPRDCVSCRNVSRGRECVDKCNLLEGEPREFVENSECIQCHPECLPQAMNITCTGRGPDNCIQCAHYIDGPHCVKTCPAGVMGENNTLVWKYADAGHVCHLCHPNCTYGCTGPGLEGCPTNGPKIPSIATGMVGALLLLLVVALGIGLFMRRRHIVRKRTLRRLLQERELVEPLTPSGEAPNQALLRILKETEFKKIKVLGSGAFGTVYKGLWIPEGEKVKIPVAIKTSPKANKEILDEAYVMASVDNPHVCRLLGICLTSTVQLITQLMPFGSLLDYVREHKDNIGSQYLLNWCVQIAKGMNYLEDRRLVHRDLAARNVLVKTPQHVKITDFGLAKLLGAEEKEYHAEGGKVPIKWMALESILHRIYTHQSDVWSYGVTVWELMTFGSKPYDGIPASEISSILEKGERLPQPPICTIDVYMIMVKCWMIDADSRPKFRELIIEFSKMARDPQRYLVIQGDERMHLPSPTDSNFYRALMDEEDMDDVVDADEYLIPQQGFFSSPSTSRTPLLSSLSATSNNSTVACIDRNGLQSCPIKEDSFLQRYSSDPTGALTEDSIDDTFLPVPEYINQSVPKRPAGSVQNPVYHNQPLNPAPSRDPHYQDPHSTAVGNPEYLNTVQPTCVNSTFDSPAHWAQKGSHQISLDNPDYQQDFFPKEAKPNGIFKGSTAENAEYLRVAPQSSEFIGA
# measurement_description: Biochemical EGFR kinase inhibition assay (Lance Ultra TR-FRET), double mutant del19/C797S
# conditions_used: IC50 Del19/C797S (nM), 100 μM ATP
# Procedure: Biochemical EGFR kinase assays were conducted using Lance Ultra time-resolved fluorescence resonance energy transfer (TR-FRET) technology from Perkin-Elmer. […] Each kinase reactions were incubated at room temperature for 1 hour and then stopped by the addition of 4 μL of stop solution (10 mM EDTA). […] After 60 minutes incubation at room temperature the LANCE signal was measured on an EnVision Multilabel Reader (Perkin-Elmer). […]
measured_parameter: IC50 (nM)

Consider the reported IC50 for these molecules:
INSERT INTO measurements (molecule, tgt, reported_value) VALUES
  ('Cn1cc(C#Cc2cnc(Nc3ccnc(-c4cnn(S(=O)(=O)C5CC5)c4)n3)cc2N2CCC(O)CC2)c(C(F)(F)F)n1 [Example 89]', 'EGFR Del19/C797S (Homo sapiens, UniProt P00533, C797S/DEL746-750)', 63.8),
  ('CN(C)CCNC1CCN(c2cc(Nc3ccnc(-c4cnn(S(=O)(=O)C5CC5)c4)n3)ncc2C#Cc2ccn(C)n2)CC1 [Example 142]', 'EGFR Del19/C797S (Homo sapiens, UniProt P00533, C797S/DEL746-750)', 8.4),
  ('CC1(CO)CCN(c2cc(Nc3ccnc(-c4cnn(S(=O)(=O)C5CC5)c4)n3)ncc2C#Cc2ccc(C(=O)N3CCC(O)CC3)cc2)CC1 [Example 446]', 'EGFR Del19/C797S (Homo sapiens, UniProt P00533, C797S/DEL746-750)', 1.3),
  ('CC1(C)CN(c2cc(Nc3ccnc(-c4cnn(S(=O)(=O)C5CC5)c4)n3)ncc2C#Cc2ccsc2)CCC1O (stereo not shown) [Example 229]', 'EGFR Del19/C797S (Homo sapiens, UniProt P00533, C797S/DEL746-750)', 175);

(a) CC(C)Nc1cc(Nc2ccnc(-c3cnn(S(=O)(=O)C4CC4)c3)n2)ncc1C#Cc1cnn(C(C)C)c1 [Example 19]
(b) CN1CCC(C#Cc2cnc(Nc3ccnc(-c4cnn(S(=O)(=O)C5CC5)c4)n3)cc2N2CCC(C)(CO)CC2)C1 (stereo not shown) [Example 180]
(c) Cn1cc(C#Cc2cnc(Nc3ccnc(-c4cnn(S(=O)(=O)C5CC5)c4)n3)cc2N2CCCC(O)CC2)cn1 (stereo not shown) [Example 77]
Q: Task for the reader: rank each entry by its IC50, from the minimum upward. Respond with the label ranking, as requested.
Result: b, c, a
(b: 0.3 nM, c: 6.3 nM, a: 140 nM)

Numbers sourced from patent US11981658B2.
